tested on: DMS-273; assay: NCI tumour cell line growth inhibition, 48 h
Active and inactive are the calls of the source. No stated cut-off is given here; in the data, active = GI50 up to about 1.1 µM and inactive = higher.
PARAMETER MEASURED: GI50

Worked examples, 8 molecules total:
MOLECULE	GI50
COc1ccc2c(c1)O[C@@H]1c3ccc(OC)cc3OC[C@H]21	14.1 µM (inactive)
Cc1ccc(C2CC(c3cccc([N+](=O)[O-])c3)=Nc3ccccc3S2)cc1 (stereo unspecified)	33.7 µM (inactive)
CN(C)C=C1C(=O)N(C)C(=O)N(C)C1=O	> 100 µM (inactive)
CCN(CC)CCC(=O)N1CCc2c([nH]c3ccccc23)C1c1cccnc1 (stereo unspecified)	> 100 µM (inactive)
CC[C@@]1(O)C(=O)OCc2c1cc1n(c2=O)Cc2cc3ccccc3nc2-1	< 0.01 µM (active)
CCCCCCCC(=O)OCC1OC(OC)C(NC(=O)N(CCCl)N=O)C(O)C1O (stereo unspecified)	2.9 µM (inactive)
O=c1nc(NC2CCCCO2)ccn1CCO (stereo unspecified)	> 100 µM (inactive)
BrCc1ccc2ccc3ccc(CBr)nc3c2n1	1.77 µM (inactive)

// fetch DMS-273 GI50 for Nc1ccc2nc(Nc3ccc(F)cc3)cnc2c1
> 100 µM (inactive)

Continue with CCn1c(C)nc([N+](=O)[O-])c1Sc1ncc[nH]1
57.1 µM (inactive)

Continue with CN(C)C(=S)SN(C)C(=O)Nc1ccccc1
18.2 µM (inactive)
